Please provide measured protein stability index for the entries that follow.
Tested on: Saccharomyces cerevisiae;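 further: PSI is a weighted mean of sequencing reads over stability bins, variants kept only with over 10 reads, mCherry proximal and sfGFP distal, peptide attached via GGGS linker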
Protocol: protein stability index of tFT-peptide fusion (C-terminal peptide) (PSI (0-1 scale)); higher = more stable (slower turnover)
Recorded Conditions: genetic background: wild type; temperature: 30 C
In your answer, state the number alone without any accompanying words.

Please report the recorded protein stability index for QAVVGSYRELGE .
0.709

Please report the recorded protein stability index for FRGGRTEWEKNV .
0.719

Please report the recorded protein stability index for TYSTDRPGLHTW .
0.698

Please report the recorded protein stability index for GVPLSGLVCPRP .
0.71

Please report the recorded protein stability index for PPPPPPPSPLAP .
0.707

Please report the recorded protein stability index for KKKTSKVIIREG .
0.689

Please report the recorded protein stability index for EVVCLGKTTLKR .
0.692

Please report the recorded protein stability index for GGVVLTWLGENC .
0.717

Please report the recorded protein stability index for PPTSPGPGSLYS .
0.693

Please report the recorded protein stability index for TPRSPFPPLPPP .
0.698

Please report the recorded protein stability index for INGYRYHTVNIK .
0.688

Please report the recorded protein stability index for PLPPPLPQAPPT .
0.695

Please report the recorded protein stability index for GCPSGRDIQSSH .
0.643

Please report the recorded protein stability index for DRRYIISLIYIL .
0.113

Please report the recorded protein stability index for GKRGGTGAGEKR .
0.66

Please report the recorded protein stability index for GSLHGTSAPPRF .
0.731

Please report the recorded protein stability index for HSPPPLPLPTHP .
0.719

Please report the recorded protein stability index for VRPPPPPRSSPL .
0.742

Please report the recorded protein stability index for PLPPTAPPHPPP .
0.671

Please report the recorded protein stability index for PPPPLPPRPSPP .
0.71

Please report the recorded protein stability index for IIFACFYGVFLM .
0.187

Please report the recorded protein stability index for IDKGENTGKHRL .
0.673

Please report the recorded protein stability index for WRLAVDLGRFCT .
0.617

Please report the recorded protein stability index for HPPLPRPPPVPH .
0.683

Please report the recorded protein stability index for LPDAPCLCSGLL .
0.714

Please report the recorded protein stability index for TPPSPPLPNQLP .
0.696

Please report the recorded protein stability index for RRRGQLNTAEWK .
0.717

Please report the recorded protein stability index for PSRYHLFLPSPA .
0.73
